- Test system: A549
- measurement.description: Antiproliferative activity against human A549 cells assessed as […] cell proliferation at 10 uM incubated for 48 hrs in presence of 15 uM of CDDP by WST-1 assay relative to control
- Assay type: functional
endpoint: Activity (%)
Express your answer in %, writing the number without its unit.

The cases that follow already have their Activity on record.
>>> data_value("CC(C)S(=O)(=O)c1ccc(-c2cc(C(=O)N3CCC(c4ccccc4)CC3)n[nH]2)cc1")
62
>>> data_value("CCN(CC)c1ccc(CNC(=O)c2c[nH]c3ncc(-c4ccc(S(=O)(=O)C(C)C)cc4)cc23)cc1")
58
>>> data_value("CC(C)S(=O)(=O)c1ccc(-c2cc(-c3nnc(-c4ccccc4)o3)n[nH]2)cc1")
64
>>> data_value("CC(C)S(=O)(=O)c1ccc(-c2cnc3[nH]nc(C(=O)N4CCc5ccccc5C4)c3c2)cc1")
61

Challenge: Activity lookup needed for `CCN1CCN(C2CCN(Cc3c[nH]c4ncc(-c5ccc(S(=O)(=O)C(C)C)cc5)cc34)CC2)CC1` , thanks.
Response given: 46

Challenge: Query: Activity; subject: `CC(C)S(=O)(=O)c1ccc(-c2cnc3[nH]c(C(=O)Nc4ccc(N(C)C)cc4)cc3c2)cc1`
Response given: 68

Challenge: Which Activity is listed for `CC(C)S(=O)(=O)c1ccc(-c2cc(C(=O)Nc3ccccc3)n[nH]2)cc1` ?
Response given: 70

Challenge: Please report the recorded Activity for `CC(C)S(=O)(=O)c1ccc(-c2cnc3[nH]c(C(=O)N4CCc5ccccc5C4)cc3c2)cc1` .
Response given: 57

Challenge: GET /values?readout=Activity&item= `CC(C)S(=O)(=O)c1ccc(-c2cnc3[nH]c(C(=O)N4CCC(c5ccccc5)CC4)cc3c2)cc1`
Response given: 64

* * *

- Tested on: HeLa
- measurement.description: Antiproliferative activity against human HeLa cells assessed as […] cell proliferation at 10 uM incubated for 48 hrs in presence of 15 uM of CDDP by WST-1 assay relative to control
- Type: functional
endpoint: Activity (%)
Numeric only. Scale: %

Sample records with Activity:
>>> data_value("CCN(CC)c1ccc(CNC(=O)c2c[nH]c3ncc(-c4ccc(S(=O)(=O)C(C)C)cc4)cc23)cc1")
58
>>> data_value("CC(C)S(=O)(=O)c1ccc(-c2cc(C(=O)N3CCc4ccccc4C3)n[nH]2)cc1")
57
>>> data_value("CC(C)S(=O)(=O)c1ccc(-c2cnc3[nH]c(C(=O)N4CCC(c5ccccc5)CC4)cc3c2)cc1")
64

Challenge: API: value(readout=Activity, system=HeLa) for record `CC(C)S(=O)(=O)c1ccc(-c2cc(-c3nc(-c4ccccc4)no3)n[nH]2)cc1`
Response given: 62

Challenge: For HeLa, provide Activity of `CC(C)S(=O)(=O)c1ccc(-c2cnc3[nH]c(C(=O)Nc4ccc(N(C)C)cc4)cc3c2)cc1` please.
Response given: 68

Challenge: Can you look up Activity on HeLa for `CS(=O)(=O)c1ccc(-c2cnc3[nH]nc(C(=O)N4CCC(c5ccccc5)CC4)c3c2)cc1` ?
Response given: 71

* * *

- System: PANC-1
- measurement.description: Antiproliferative activity against human PANC-1 cells assessed as […] cell proliferation at 10 uM incubated for 48 hrs in presence of 15 uM of CDDP by WST-1 assay relative to control
- Type: functional
The entries below are paired with their reported Activity.
Your answer should be a plain number; it is taken to be in %.

Take a look at these entries with their results.
>>> data_value("CC(C)S(=O)(=O)c1ccc(-c2cnc3[nH]nc(C(=O)N4CCC(c5ccccc5)CC4)c3c2)cc1")
49
>>> data_value("CC(C)S(=O)(=O)c1ccc(-c2cc(C(=O)N3CCc4ccccc4C3)n[nH]2)cc1")
57
>>> data_value("CC(C)S(=O)(=O)c1ccc(-c2cnc3[nH]nc(C(=O)N4CCc5ccccc5C4)c3c2)cc1")
61

Turning to the following compound.
Challenge: Which measured Activity value corresponds to `CCN(CC)c1ccc(CNC(=O)c2n[nH]c3ncc(-c4ccc(S(=O)(=O)C(C)C)cc4)cc23)cc1` ?
Response given: 57
